# system under test: L-lactate dehydrogenase (Plasmodium falciparum (isolate CDC / Honduras))
# method description: PfLDH activity inhibition – cell lysate, 3D7 strain, counter-screen for P. falciparum growth inhibition project (AID 2304);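 further: 0% = vehicle and 100% = reference inhibitor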
# measurement context: P. falciparum 3D7 crude extract, LDH APAD/NBT absorbance; at 2 µM; hits give high values
recorded metric: inhibition (%)
Supply the numeric figure in %, leaving out any unit text.

compound	system under test	test value
O=C(Nc1cc(Cl)ccc1O)c1cc(-c2ccccc2O)no1	L-lactate dehydrogenase (Plasmodium falciparum (isolate CDC / Honduras))	2

Notebook: pull reported inhibition for L-lactate dehydrogenase (Plasmodium falciparum (isolate CDC / Honduras)), entry O=C(c1ccc(Cl)cc1Cl)N1CCCC(C(F)(F)F)C1 (stereo not given)
3

Same again, this time with CC(=O)c1nccc(C)c1N
1

Okay, and COc1ccc(CNCc2ccc(-c3cccc(-c4nc5c(C)cccc5[nH]4)c3)cc2)cc1 ?
-7

And the next one, CN1CCc2cc(NS(=O)(=O)c3ccc(-c4ccc(Cl)s4)cc3)c(N3CCCCC3)cc2CC1 ?
3

Next up: COc1ccc2ncc(F)c(CCN3CCC(NCc4cc(F)c5c(c4)OCCO5)CC3)c2n1
-5

Same thing, different compound: Cc1cccc2[nH]c(-c3cccc(-c4ccc(NC(=O)c5ccoc5)cc4)c3)nc12
-5

Moving on to the next compound: Cc1nc2ccccc2n1C1C[C@H]2CC[C@@H](C1)N2CCCC1(c2ccccc2)CCN(C(=O)OCc2ccccc2)CC1 (stereo not given in full)
-4

Next: CCOC(=O)c1ccc(NC(=O)N(Cc2ccc(-c3cccc(CN4CCNCC4)c3)cc2)C2CCN(Cc3ccccc3)CC2)cc1
4

Then what about the compound Clc1ccc2c(NCc3ccccc3)ccnc2c1 ?
1

Can you check Oc1ccc2[nH]c(-c3ccc(OC(F)(F)F)cc3)nc2c1CNC1CCCC1 next?
0

----------
# system under test: L-lactate dehydrogenase (Plasmodium falciparum (isolate CDC / Honduras))
# method description: PfLDH activity inhibition – cell lysate, 3D7 strain, counter-screen for P. falciparum growth inhibition project (AID 2304);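 further: 0% = vehicle and 100% = reference inhibitor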
# measurement context: P. falciparum 3D7 crude extract, LDH APAD/NBT absorbance; at 2 µM; hits give high values
Recorded inhibition by entry
Numeric only. Scale: %

Sample records with inhibition:
molecule	inhibition [%]
CN1CCN(c2cc(NC(=O)Nc3cccc(Cl)c3Cl)ccc2Cl)CC1	2
CCc1cn2c3c(cc(C(=O)N[C@@H](Cc4ccccc4)[C@H](O)CNC4CCOCC4)cc13)N(CC(F)(F)F)S(=O)(=O)CC2	-2
CC(C)N(C(=O)CSc1nc2cc(Cl)ccc2c(=O)n1Cc1ccccc1)C(C)C	-5
COc1ccc(-c2ccc(NC(=O)c3cccc(Cl)c3)c(F)c2)cc1CNC(C)C	-5
COc1ccc2ncc(Cl)c(NCC3(O)CCC(NCc4ccc5c(n4)NC(=O)CS5)CC3)c2n1 (stereo not drawn)	-3
Oc1ccccc1CN1CCCC(COC(c2ccc(F)cc2)c2ccc(F)cc2)C1 (stereo not drawn)	1

Give the reported inhibition for COc1ccc(-c2ccc(NC(=O)c3ccc(C#N)cc3)cc2)cc1CN1CCNCC1 (system: L-lactate dehydrogenase (Plasmodium falciparum (isolate CDC / Honduras))).
0

And what about the molecule CN(CCCCNC(=O)c1cc2ccccc2[nH]1)C1CC2(CCN(C(=O)OC(C)(C)C)CC2)c2ccccc21 (stereo not drawn) ?
2

// repeat for c1ccc(CNCc2ccc(-c3cccc(-c4nc5ccccc5[nH]4)c3)cc2)cc1 and report
-2

Record: NC(N)=Nc1nc(CCCCCCCCc2csc(N=C(N)N)n2)cs1
0

----------
# method description: human hepatoma cell viability loss – ATP luminescence, cytotoxicity control for P. falciparum antimalarial project, primary screen (AID 2303);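 further: 0% = DMSO wells and 100% = digitonin-killed cells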
# measurement context: HepG2 viability, 24-48 h, at 10 µM
Activity calls are given as the source filed them.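 How the source made its calls: active means inhibition above 50%; inactive means the rest.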
Could you please pick one outcome from this set? True = active, False = inactive

compound	class
CS(=O)(=O)CCNCc1cccc(-c2cc3c(Nc4ccc(OCc5cccc(F)c5)c(Cl)c4)ncnc3s2)c1	False
Cc1cc(NC(=O)Nc2ccc(Oc3ccccc3)cc2)c2ccccc2n1	False
c1ccc(-c2csc(Nc3nc4cc5c(cc4s3)OCO5)n2)nc1	False
COc1ccc2nccc(NN=Cc3ccccc3)c2c1	False
Cc1cc(Cc2ccc(S(=O)(=O)c3cc4c(cc3O)CCN(C)CC4)cc2)ccc1Cl	False

What did this assay record as the result for COc1ccccc1CCC(C)(C)NC(=O)CC(CCc1ccccc1)Nc1ccc(C#N)c2ccccc12 (centres undefined) ?
False

Continue with N#Cc1ccc(CNCCCCCCCNCc2ccc(-c3ccccc3)cc2)cc1
False

Also need COc1cc2c(cc1S(=O)(=O)c1ccc(NC(=O)c3ccc4ccccc4c3)cc1)CCN(C)CC2 , thanks.
False

----------
# method description: human hepatoma cell viability loss – ATP luminescence, cytotoxicity control for P. falciparum antimalarial project, primary screen (AID 2303);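 further: 0% = DMSO wells and 100% = digitonin-killed cells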
# measurement context: HepG2 viability, 24-48 h, at 10 µM, hits give high values
Recorded measurements of inhibition, one per entry
Answer format: numeric, % implied, no suffix.

Recorded inhibition, per entry:
molecule	unit label	inhibition
O=C(NCCN1CCCC1)c1cc(-c2ccc(Cl)c(O)c2)c(-c2ccncc2)o1	%	-23
O=S(=O)(NCCN1CCCC1)c1ccc(-c2ccc(CNC3Cc4ccccc4C3)cc2)s1	%	47
O=C(Nc1cccc(OC2CCN(Cc3ccsc3)CC2)c1)c1ccc(C(F)(F)F)cc1	%	25
O=C(NCCCN1CCC(N2CCCCC2)CC1)c1ccc2nc(N3CCCCC3)sc2c1	%	11
COc1cc(NCCCCCNc2cc(Cl)nc3ccccc23)nc2ccccc12	%	17

Name the reported inhibition value associated with the molecule Cc1cc(C=C2SC(=Nc3ccccc3)N(C3CCCC3)C2=O)c(C)n1-c1ccc(Cl)cc1
-8

Follow-up entry: CS(=O)(=O)c1ccc(Nc2ncc(-c3ccc(S(C)(=O)=O)cc3)c(OCC(F)(F)F)n2)cc1
-7

Next molecule up: O=C(Nc1ccccc1)Nc1cccc(-c2cccc(-c3nc4ccc(F)cc4[nH]3)c2)c1
38

----------
# method description: human hepatoma cell viability loss – ATP luminescence, cytotoxicity control for P. falciparum antimalarial project, primary screen (AID 2303);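 further: 0% = DMSO wells and 100% = digitonin-killed cells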
# measurement context: HepG2 viability, 24-48 h, at 10 µM
Calls of active or inactive are those of the source.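 The calls were made as follows: active = inhibition above 50%; inactive = the rest.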
Use one of these outcomes when replying: label 1 for active, label 0 for inactive

molecule	class
CC(C)(C)c1ccc2nccc(Nc3cccc(O)c3)c2c1	label 0
O=C(Nc1cccc(CN2CCN(C(=O)c3cccc(F)c3)CC2)c1)c1ccco1	label 0
Cc1cnc(-c2cccc(C(=O)NC3CCC(CCN4CCc5ccc(C#N)cc5CC4)CC3)c2)[nH]1 (centres undefined)	label 0
CC(=O)Nc1nc(C(=O)Nc2cccc(-c3ccc(-c4nc5c(C)cccc5[nH]4)cc3)c2)cs1	label 1
CN1CCN(Cc2cc3cc(NC(=O)/C=C/c4ccc(Cl)cc4)ccc3s2)CC1	label 1
O=C(Nc1ccc(C(=O)N2CCN(CCN3CCN(c4cccc(C(F)(F)F)c4)CC3)CC2)cc1)c1cc(Cl)cc(Cl)c1	label 0
Cn1nc(-c2ccc(NC(=O)Nc3cc(C(F)(F)F)ccc3F)c(F)c2)c2cnc(NCCCn3ccnc3)nc21	label 0
COc1ccccc1CNC(=O)c1ccc(N2CCN(c3ccncc3)CC2)cn1	label 0

Now consider the entry below.
What did the test return for CC1(C)N=C(N)N=C(N)N1OCc1cccc(Cl)c1Cl ?
label 1

----------
# system under test: L-lactate dehydrogenase (Plasmodium falciparum (isolate CDC / Honduras)) (UniProt Q27743)
# Sequence (Q27743 whole entry, looked up): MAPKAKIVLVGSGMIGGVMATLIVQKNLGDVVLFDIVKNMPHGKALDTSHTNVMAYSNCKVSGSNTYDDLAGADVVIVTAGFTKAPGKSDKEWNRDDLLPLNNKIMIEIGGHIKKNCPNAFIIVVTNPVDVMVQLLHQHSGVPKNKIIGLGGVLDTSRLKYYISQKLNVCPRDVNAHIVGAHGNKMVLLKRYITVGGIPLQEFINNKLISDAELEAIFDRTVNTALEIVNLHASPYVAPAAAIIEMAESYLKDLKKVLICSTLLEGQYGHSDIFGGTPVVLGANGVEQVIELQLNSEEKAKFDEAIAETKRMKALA
# method description: PfLDH activity inhibition – cell lysate, 3D7 strain, counter-screen for P. falciparum growth inhibition project (AID 2304);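 further: 0% = vehicle and 100% = reference inhibitor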
# measurement context: P. falciparum 3D7 crude extract, LDH APAD/NBT absorbance; at 2 µM; hits give high values
inhibition values by entry
Lab book: enter the figure in %, no units written.

CCN(CC)c1ccc(C(c2ccc(N(CC)CC)cc2)c2cccc([N+](=O)[O-])c2)cc1 -1
Cc1cc(-c2cccc(CNC3CCN(C)CC3)c2)ccc1S(=O)(=O)NC1CCC1 3
COc1ccc(-c2ccc(NC(=O)c3cccc(C#N)c3)cc2)cc1CN(C)C 0
CC(C)c1cccc(C(C)C)c1NC(=O)NNC(=O)c1ccc(CCN2CCC(c3nc(COCC(F)(F)F)c(-c4ccc(F)cc4)o3)CC2)cc1 -2

Quick one: inhibition of N#Cc1ccc(-c2ccc(C(=O)NCCCCN3CCC(c4cn(CCO)c5ccccc45)CC3)cc2)cc1 ?
4

----------
# system under test: Protein kinase 7 (PK7), Plasmodium falciparum 3D7 (PF3D7_0213400) (UniProt Q7YTF7)
# method description: inhibition of Plasmodium PK7 catalytic activity – biochemical, TCAMS antimalarial set, Kinase-Glo luminescence (AID 1159587)
# measurement context: recombinant PfPK7, Kinase-Glo ATP depletion luminescence
The source made the active and inactive calls. How the calls were made is not given here.
recorded metric: outcome

Consider the following illustrative entries.
compound	outcome
Cc1noc(C)c1-c1ccc2c(Nc3ccccc3C(C)(C)C)c(C(=O)NCc3ccc(C(F)(F)F)cc3)cnc2c1	inactive
O=C(NCc1cc2c(cc1Cl)OCO2)c1ccc(CNC2CCN(Cc3ccccc3)CC2)cc1	inactive
Cc1cccc(OCCCCON2C(N)=NC(N)=NC2(C)C)c1C	inactive
Cc1cc(N2CCCN(CC3CCCCC3)CC2)nc(Nc2ccc(Br)cc2)n1	inactive
Nc1cccc(CNCc2cccc(-c3ccc(-c4nc5ccccc5[nH]4)cc3)c2)c1	inactive
Cc1cc(NCCC(=O)Nc2ccccc2)nc(NCCc2ccc(F)cc2)n1	inactive
c1cc(CNCCc2ccncc2)cc(-c2cccc(-c3nc4ccccc4[nH]3)c2)c1	inactive
CC1(C)N=C(N)N=C(N)N1OCC=Cc1ccccc1	inactive

Recorded outcome for CC(=O)CSC(C=Cc1ccc(N(C)C)cc1)=Nc1ccccc1 , please?
inactive

What do we get for Cc1ccc(Nc2nccc(NCC(O)c3cccc(C(F)(F)F)c3)n2)cc1 (stereo not given) ?
inactive

These data points were gathered from PubChem BioAssay.
